Test: Partition coefficient (logP)
Format: physicochemical
Details: octanol/water
We begin with a simple list: items and their reported logP.
valueKind: logP

CC(C)Oc1c(C(C)C)c(O)c2c(=O)cc(-c3ccccc3)oc2c1C(C)C | 6.84
CC(C)=CCC/C(C)=C\Cc1c(O)cc(O)c2c(=O)cc(-c3ccccc3)oc12 | 6.71
Cc1c(O)cc2oc(-c3ccccc3)cc(=O)c2c1O | 5.85
O=c1cc(-c2ccccc2)oc2cc(O)cc(O)c12 [CHRYSIN] | 5.7
O=c1cc(-c2ccccc2)oc2c(Cc3ccccc3)c(O)cc(O)c12 | 6.1
COc1cc2oc(-c3ccccc3)cc(=O)c2c(O)c1C | 6.18
CC(C)=CCc1c(O)cc2oc(-c3ccccc3)cc(=O)c2c1O | 6.15
O=c1cc(-c2ccccc2)oc2cc(O)c(Cc3ccccc3)c(O)c12 | 6.1
O=c1cc(-c2ccccc2)oc2c(Cc3ccccc3)c(O)c(Cc3ccccc3)c(O)c12 | 6.41
O=c1cc(-c2ccccc2)oc2cc(OCc3ccccc3)cc(O)c12 | 6.42
CC(C)=CCc1c(O)cc(O)c2c(=O)cc(-c3ccccc3)oc12 | 6.2

###

Test: Effect of Chrysin Alkylation on the Binding to PgP Cytosolic Domain.
Type: ADME
We begin with a simple list: items and their reported log10 of Kd.
valueKind: log10 of Kd (log10 of the value in nM)

Cc1c(O)cc2oc(-c3ccccc3)cc(=O)c2c1O | 3.49
CC(C)=CCC/C(C)=C\Cc1c(O)cc(O)c2c(=O)cc(-c3ccccc3)oc12 | 1.40
O=c1cc(-c2ccccc2)oc2c(Cc3ccccc3)c(O)cc(O)c12 | 3.00
CC(C)=CCc1c(O)c(CC=C(C)C)c2oc(-c3ccccc3)cc(=O)c2c1O | 1.18
CC(C)=CCc1c(O)cc(O)c2c(=O)cc(-c3ccccc3)oc12 | 2.45
COc1cc2oc(-c3ccccc3)cc(=O)c2c(O)c1C | 3.11
COc1cc(O)c2c(=O)cc(-c3ccccc3)oc2c1 [TECHTOCHRYSIN] | 3.80
CC(C)c1c(O)cc2oc(-c3ccccc3)cc(=O)c2c1O | 2.32
O=c1cc(-c2ccccc2)oc2cc(O)cc(O)c12 [CHRYSIN] | 4.12
CC(C)Oc1cc(O)c2c(=O)cc(-c3ccccc3)oc2c1 | 3.12
CC(C)=CCc1c(O)cc2oc(-c3ccccc3)cc(=O)c2c1O | 2.48

###

Test: Hydrophobicity index was determined in C18 reverse phase silica gel 20 * 20 cm plates in methanol:water (8:2).
Assay type: ADME
We begin with a simple list: items and their reported Hydrophobicity index.
valueKind: Hydrophobicity index

O=c1cc(-c2ccccc2)oc2cc(O)cc(O)c12 | 0.358
CC(C)=CCC/C(C)=C\Cc1c(O)cc2oc(-c3ccccc3)cc(=O)c2c1O | 1.288
COc1cc2oc(-c3ccccc3)cc(=O)c2c(O)c1C | 0.842

All values here come from ChEMBL document CHEMBL1134361.
